EXPERIMENTAL DETAILS: Biodistribution in colon after single oral dose
Assay type: in vivo
CONDITION DESCRIPTION: mouse, colon/plasma; PO 90.0 mg/kg, male Swiss albino mice, 1.00 h; read-out: Colon/Plasma ratio, Mean
Procedure: The biodistribution of DFL23806 in the proximal and distal colon was evaluated in male Swiss albino mice following single dose oral administration of DFL23806 90 mg/kg. Colon concentration (ng/g) of DFL23806 after PO (90.0 mg/kg) dose administration to male Swiss albino mice. Colon/Plasma ratio of DFL23806 after PO (90.0 mg/kg) dose administration to male Swiss albino mice.
PROPERTY NAME: Kp at 1 h
Answer with a number only.

Query: For `Cc1cc(F)cc(C)c1NS(=O)(=O)c1cccc(CCCCCCC(=O)O)c1` , what is its reported Kp at 1 h?
Response: 1.63

====

// reported Cmax per item
EXPERIMENTAL DETAILS: Plasma pharmacokinetics after single oral administration to mice
Format: in vivo
CONDITION DESCRIPTION: male, CD1, mouse, single oral dose (Dose_PO: 10.0-90.0 mg/kg)
Give the quantity in µg/mL, number only.

Below are worked cases with known answers.
- COMPOUND STRING: "Cc1cc(F)cc(-c2ccccc2)c1NS(=O)(=O)c1cccc(CCCCCCC(=O)O)c1"
  UNITS SYMBOL: "µg/mL"
  OBSERVED: 0.135
- COMPOUND STRING: "Cc1cc(F)c(-c2ccccc2)cc1NS(=O)(=O)c1cccc(CCCCCCC(=O)O)c1"
  UNITS SYMBOL: "µg/mL"
  OBSERVED: 0.198
- COMPOUND STRING: "Cc1cc(F)cc(C)c1NS(=O)(=O)c1cccc(CCCCCCC(=O)O)c1"
  UNITS SYMBOL: "µg/mL"
  OBSERVED: 0.106
- COMPOUND STRING: "Cc1cc(C(F)(F)F)cc(C)c1NS(=O)(=O)c1cccc(CCCCCCC(=O)O)c1"
  UNITS SYMBOL: "µg/mL"
  OBSERVED: 0.123
- COMPOUND STRING: "Cc1cc(F)c(-c2cccs2)cc1NS(=O)(=O)c1cccc(CCCCCCC(=O)O)c1"
  UNITS SYMBOL: "µg/mL"
  OBSERVED: 0.113

Below: the item to evaluate.
Query: # get_value(readout='Cmax', item= `Cc1cc(Cl)cc(C)c1NS(=O)(=O)c1cccc(CCCCCCC(=O)O)c1` )
Response: 0.045

====

EXPERIMENTAL DETAILS: Plasma pharmacokinetics after single oral administration to mice
Type: in vivo
CONDITION DESCRIPTION: male, CD1, mouse, single oral dose (Dose_PO: 10.0-90.0 mg/kg)
PROPERTY NAME: half-life (h)
I only need the number, in h, no unit after it.

- COMPOUND STRING: "Cc1cc(F)c(-c2cccs2)cc1NS(=O)(=O)c1cccc(CCCCCCC(=O)O)c1"
  UNITS SYMBOL: "h"
  half-life: 1.9
- COMPOUND STRING: "Cc1cc(Cl)cc(C)c1NS(=O)(=O)c1cccc(CCCCCCC(=O)O)c1"
  UNITS SYMBOL: "h"
  half-life: 1.2
- COMPOUND STRING: "Cc1cc(F)c(-c2ccccc2)cc1NS(=O)(=O)c1cccc(CCCCCCC(=O)O)c1"
  UNITS SYMBOL: "h"
  half-life: 2.2
- COMPOUND STRING: "Cc1cc(C(F)(F)F)cc(C)c1NS(=O)(=O)c1cccc(CCCCCCC(=O)O)c1"
  UNITS SYMBOL: "h"
  half-life: 1.5
- COMPOUND STRING: "Cc1cc(F)cc(C)c1NS(=O)(=O)c1cccc(CCCCCCC(=O)O)c1"
  UNITS SYMBOL: "h"
  half-life: 5.8

As a next step, examine the molecule that follows.
Query: May I ask what half-life has been recorded for `Cc1cc(F)cc(-c2ccccc2)c1NS(=O)(=O)c1cccc(CCCCCCC(=O)O)c1` ?
Response: 1.3

====

EXPERIMENTAL DETAILS: Biodistribution in colon after single oral dose
Assay type: in vivo
CONDITION DESCRIPTION: mouse, colon; PO 90.0 mg/kg, male Swiss albino mice, 4.00 h
PROPERTY NAME: concentration at 4 h (ng/g)
Express your answer in ng/g, writing the number without its unit.

Query: Requested field: concentration at 4 h. Item: Cc1cc(F)cc(C)c1NS(=O)(=O)c1cccc(CCCCCCC(=O)O)c1 [DFL23806]
Response: 3570

====

EXPERIMENTAL DETAILS: Biodistribution in colon after single oral dose
Type: in vivo
CONDITION DESCRIPTION: mouse, colon; PO 90.0 mg/kg, male Swiss albino mice, 1.00 h
PROPERTY NAME: concentration at 1 h
A complete answer gives the number and then names the unit.

Query: Consider the compound shown here: Cc1cc(F)cc(C)c1NS(=O)(=O)c1cccc(CCCCCCC(=O)O)c1 [DFL23806] What is its recorded concentration at 1 h?
Response: 68.3 ng/g

====

EXPERIMENTAL DETAILS: Plasma pharmacokinetics after single oral administration to mice
Format: in vivo
CONDITION DESCRIPTION: male, CD1, mouse, single oral dose (Dose_PO: 10.0-90.0 mg/kg)
Below, each entry is listed with its recorded Tmax.
Kindly answer with a numeric value in min, unit omitted.

Query: Which Tmax is listed for Cc1cc(F)c(-c2ccccc2)cc1NS(=O)(=O)c1cccc(CCCCCCC(=O)O)c1 [DFL23916] ?
Response: 24

Query: State the recorded Tmax for this entry: Cc1cc(F)cc(C)c1NS(=O)(=O)c1cccc(CCCCCCC(=O)O)c1 [DFL23806]
Response: 30

Query: Which value of Tmax has been reported for Cc1cc(Cl)cc(C)c1NS(=O)(=O)c1cccc(CCCCCCC(=O)O)c1 [DFL23914] in the records?
Response: 120

Query: Consider the molecule Cc1cc(F)c(-c2cccs2)cc1NS(=O)(=O)c1cccc(CCCCCCC(=O)O)c1 [DFL24102] and give its measured Tmax.
Response: 60

Query: Quick one: Tmax for Cc1cc(F)cc(-c2ccccc2)c1NS(=O)(=O)c1cccc(CCCCCCC(=O)O)c1 [DFL23917] ?
Response: 30

Query: What value of measured Tmax is listed for Cc1cc(C(F)(F)F)cc(C)c1NS(=O)(=O)c1cccc(CCCCCCC(=O)O)c1 [DFL23922] ?
Response: 84

====

EXPERIMENTAL DETAILS: Plasma pharmacokinetics after single oral administration to mice
Assay type: in vivo
CONDITION DESCRIPTION: male, CD1, mouse, single oral dose (Dose_PO: 10.0-90.0 mg/kg)
Label 0 (no) if AUC(0-inf) falls below 400 ng·h/mL; label 1 (yes) in every other case.

A selection of reference data follows.
- MOLECULE: "Cc1cc(C(F)(F)F)cc(C)c1NS(=O)(=O)c1cccc(CCCCCCC(=O)O)c1 [DFL23922]"
  CLASS NAME: "0 (no)"
- MOLECULE: "Cc1cc(F)c(-c2cccs2)cc1NS(=O)(=O)c1cccc(CCCCCCC(=O)O)c1 [DFL24102]"
  CLASS NAME: "0 (no)"
- MOLECULE: "Cc1cc(F)c(-c2ccccc2)cc1NS(=O)(=O)c1cccc(CCCCCCC(=O)O)c1 [DFL23916]"
  CLASS NAME: "1 (yes)"

Query: hey, is AUC(0-inf) for this one >= 400 ng·h/mL? Cc1cc(Cl)cc(C)c1NS(=O)(=O)c1cccc(CCCCCCC(=O)O)c1 [DFL23914]
Response: 0 (no)

====

EXPERIMENTAL DETAILS: Plasma pharmacokinetics after single oral administration to mice
Format: in vivo
CONDITION DESCRIPTION: male, CD1, mouse, single oral dose (Dose_PO: 10.0-90.0 mg/kg)
Threshold-based label: AUC(0-t) under 300 ng·h/mL gives Fulfilled, AUC(0-t) not under 300 ng·h/mL gives Not fulfilled.

- MOLECULE: "Cc1cc(F)cc(C)c1NS(=O)(=O)c1cccc(CCCCCCC(=O)O)c1 [DFL23806]"
  CLASS NAME: "Not fulfilled"
- MOLECULE: "Cc1cc(Cl)cc(C)c1NS(=O)(=O)c1cccc(CCCCCCC(=O)O)c1 [DFL23914]"
  CLASS NAME: "Fulfilled"
- MOLECULE: "Cc1cc(F)c(-c2cccs2)cc1NS(=O)(=O)c1cccc(CCCCCCC(=O)O)c1 [DFL24102]"
  CLASS NAME: "Fulfilled"

Query: Field: below-cutoff. Rule: recorded AUC(0-t) strictly less than 300 ng·h/mL. Subject: Cc1cc(C(F)(F)F)cc(C)c1NS(=O)(=O)c1cccc(CCCCCCC(=O)O)c1 [DFL23922]
Response: Fulfilled

Query: Regarding Cc1cc(F)c(-c2ccccc2)cc1NS(=O)(=O)c1cccc(CCCCCCC(=O)O)c1 [DFL23916] , kindly confirm whether its AUC(0-t) is beneath 300 ng·h/mL.
Response: Not fulfilled

Query: For Cc1cc(F)cc(-c2ccccc2)c1NS(=O)(=O)c1cccc(CCCCCCC(=O)O)c1 [DFL23917] , is the recorded AUC(0-t) below the cut-off of 300 ng·h/mL?
Response: Not fulfilled
